SYSTEM: DNA polymerase kappa (Homo sapiens)
Sequence (Q9UBT6 whole entry): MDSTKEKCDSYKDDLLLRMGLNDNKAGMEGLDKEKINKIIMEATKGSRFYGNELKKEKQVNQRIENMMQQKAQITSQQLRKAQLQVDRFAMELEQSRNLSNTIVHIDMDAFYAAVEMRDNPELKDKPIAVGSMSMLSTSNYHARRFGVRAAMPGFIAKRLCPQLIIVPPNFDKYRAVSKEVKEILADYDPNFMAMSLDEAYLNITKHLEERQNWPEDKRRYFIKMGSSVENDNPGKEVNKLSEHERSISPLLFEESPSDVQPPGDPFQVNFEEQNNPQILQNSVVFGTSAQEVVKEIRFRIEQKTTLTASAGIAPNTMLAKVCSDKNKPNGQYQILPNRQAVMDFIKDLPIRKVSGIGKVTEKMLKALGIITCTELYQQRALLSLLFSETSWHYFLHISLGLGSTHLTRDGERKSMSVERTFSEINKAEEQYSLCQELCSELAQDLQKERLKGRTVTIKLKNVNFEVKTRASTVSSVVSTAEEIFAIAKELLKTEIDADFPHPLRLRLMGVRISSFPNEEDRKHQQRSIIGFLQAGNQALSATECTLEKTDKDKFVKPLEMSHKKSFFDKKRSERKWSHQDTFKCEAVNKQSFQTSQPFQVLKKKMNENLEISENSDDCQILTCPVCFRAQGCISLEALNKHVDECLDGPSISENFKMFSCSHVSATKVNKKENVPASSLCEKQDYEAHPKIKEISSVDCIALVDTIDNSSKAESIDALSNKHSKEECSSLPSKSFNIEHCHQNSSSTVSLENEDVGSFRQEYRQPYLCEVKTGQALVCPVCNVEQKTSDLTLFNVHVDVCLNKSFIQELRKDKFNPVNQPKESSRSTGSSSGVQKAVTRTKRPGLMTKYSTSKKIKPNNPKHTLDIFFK
PROTOCOL TEXT: Inhibition of human DNA polymerase kappa using poly(dA)/oligo(dT)18 (A/T, 2/1)/dTTP DNA template-primer substrate measured at 37 degC for 60 mins
MEASUREMENT LABEL: IC50

COMPOUND SMILES: CC[C@H](C)[C@H](NC(=O)[C@H](Cc1ccc(O)cc1)NC(=O)OC(C)(C)C)C(=O)Nc1cccc2ccccc12
RESULT: > 200 µM

====

SYSTEM: DNA-directed DNA/RNA polymerase mu (Homo sapiens)
Sequence (Q9NP87 whole entry): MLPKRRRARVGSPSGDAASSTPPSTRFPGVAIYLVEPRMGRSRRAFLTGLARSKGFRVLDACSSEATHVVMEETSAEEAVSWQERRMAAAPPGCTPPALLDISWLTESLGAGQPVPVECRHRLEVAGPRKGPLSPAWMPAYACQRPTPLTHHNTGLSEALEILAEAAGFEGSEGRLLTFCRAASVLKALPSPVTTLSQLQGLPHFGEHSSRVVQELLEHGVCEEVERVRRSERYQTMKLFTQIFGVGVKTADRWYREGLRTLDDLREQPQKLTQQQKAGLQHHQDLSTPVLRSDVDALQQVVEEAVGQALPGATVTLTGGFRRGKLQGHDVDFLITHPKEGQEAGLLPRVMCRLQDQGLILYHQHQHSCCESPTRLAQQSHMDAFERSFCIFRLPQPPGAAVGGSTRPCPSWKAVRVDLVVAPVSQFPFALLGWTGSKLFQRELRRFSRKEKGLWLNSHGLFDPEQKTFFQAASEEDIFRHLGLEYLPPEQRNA
MEASUREMENT LABEL: IC50

COMPOUND SMILES: CC[C@H](C)[C@H](NC(=O)[C@H](Cc1ccc(O)cc1)NC(=O)OC(C)(C)C)C(=O)Nc1cccc2ccccc12
RESULT: > 200 µM

====

SYSTEM: DNA polymerase eta (Homo sapiens, UniProt Q9Y253)
Sequence (Q9Y253 whole entry): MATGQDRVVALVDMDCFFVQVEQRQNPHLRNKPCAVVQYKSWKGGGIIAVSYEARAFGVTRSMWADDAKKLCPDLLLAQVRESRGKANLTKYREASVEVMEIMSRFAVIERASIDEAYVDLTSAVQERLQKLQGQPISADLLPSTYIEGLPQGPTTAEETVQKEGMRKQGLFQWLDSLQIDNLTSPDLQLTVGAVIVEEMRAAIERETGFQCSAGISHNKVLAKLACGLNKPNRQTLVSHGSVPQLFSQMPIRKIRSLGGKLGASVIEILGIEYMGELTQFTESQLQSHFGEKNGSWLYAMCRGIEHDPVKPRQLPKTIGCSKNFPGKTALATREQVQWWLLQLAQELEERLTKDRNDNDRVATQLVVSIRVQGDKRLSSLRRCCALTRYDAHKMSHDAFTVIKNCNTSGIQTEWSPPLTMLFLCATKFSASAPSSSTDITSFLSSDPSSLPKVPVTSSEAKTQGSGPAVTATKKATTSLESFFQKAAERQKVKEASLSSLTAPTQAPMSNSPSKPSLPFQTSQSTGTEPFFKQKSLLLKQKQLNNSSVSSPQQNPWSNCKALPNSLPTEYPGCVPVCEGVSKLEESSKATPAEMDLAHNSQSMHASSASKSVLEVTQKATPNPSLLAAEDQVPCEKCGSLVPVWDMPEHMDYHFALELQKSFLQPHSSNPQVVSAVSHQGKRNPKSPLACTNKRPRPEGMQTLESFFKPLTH

COMPOUND SMILES: CC[C@H](C)[C@H](NC(=O)[C@H](Cc1ccc(O)cc1)NC(=O)OC(C)(C)C)C(=O)Nc1cccc2ccccc12
IC50: > 200 µM

====

SYSTEM: DNA polymerase beta (Rattus norvegicus, UniProt P06766)
MEASUREMENT LABEL: IC50

COMPOUND SMILES: CC[C@H](C)[C@H](NC(=O)[C@H](Cc1ccc(O)cc1)NC(=O)OC(C)(C)C)C(=O)Nc1cccc2ccccc12
SYSTEM: DNA polymerase beta (Rattus norvegicus, UniProt P06766)
RESULT: 11.5 µM

====

Protein target, amino acids: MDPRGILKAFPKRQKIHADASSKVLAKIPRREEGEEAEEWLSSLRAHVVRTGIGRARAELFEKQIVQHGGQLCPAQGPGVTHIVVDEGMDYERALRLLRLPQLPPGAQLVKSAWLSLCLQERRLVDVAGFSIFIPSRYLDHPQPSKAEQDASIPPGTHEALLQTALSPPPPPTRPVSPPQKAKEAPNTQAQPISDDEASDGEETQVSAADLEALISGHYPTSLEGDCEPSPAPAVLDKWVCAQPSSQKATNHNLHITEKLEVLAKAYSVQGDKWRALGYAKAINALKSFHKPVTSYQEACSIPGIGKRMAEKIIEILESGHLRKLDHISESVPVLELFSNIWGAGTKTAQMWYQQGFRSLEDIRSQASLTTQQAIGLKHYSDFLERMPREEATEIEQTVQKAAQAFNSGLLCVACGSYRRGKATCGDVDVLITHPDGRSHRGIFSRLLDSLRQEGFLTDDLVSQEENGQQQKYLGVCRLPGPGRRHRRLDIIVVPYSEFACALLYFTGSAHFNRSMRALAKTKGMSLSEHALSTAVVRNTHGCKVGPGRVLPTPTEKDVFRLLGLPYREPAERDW
MEASUREMENT LABEL: IC50

COMPOUND SMILES: CC[C@H](C)[C@H](NC(=O)[C@H](Cc1ccc(O)cc1)NC(=O)OC(C)(C)C)C(=O)Nc1cccc2ccccc12
RESULT: > 200 µM

====

PROTOCOL TEXT: Inhibition of calf DNA polymerase alpha using poly(dA)/oligo(dT)18 (A/T, 2/1)/dTTP DNA template-primer substrate measured at 37 degC for 60 mins
Design: species or system Bos taurus

COMPOUND SMILES: CC[C@H](C)[C@H](NC(=O)[C@H](Cc1ccc(O)cc1)NC(=O)OC(C)(C)C)C(=O)Nc1cccc2ccccc12
IC50: > 200 µM
